# TEST SYSTEM: Histone deacetylase 8 (Homo sapiens, UniProt Q9BY41)
# Sequence (Q9BY41 whole entry): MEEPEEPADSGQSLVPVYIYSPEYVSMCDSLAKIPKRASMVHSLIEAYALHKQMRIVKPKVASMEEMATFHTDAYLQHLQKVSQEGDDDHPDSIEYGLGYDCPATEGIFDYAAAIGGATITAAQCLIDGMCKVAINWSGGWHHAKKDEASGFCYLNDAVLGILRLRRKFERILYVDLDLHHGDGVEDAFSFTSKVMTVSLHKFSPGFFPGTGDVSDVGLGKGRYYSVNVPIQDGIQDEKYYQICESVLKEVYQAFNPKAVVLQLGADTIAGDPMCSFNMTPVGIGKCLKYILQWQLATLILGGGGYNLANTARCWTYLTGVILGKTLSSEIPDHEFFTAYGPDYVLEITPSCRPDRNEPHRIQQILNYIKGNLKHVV
# MEASUREMENT DESCRIPTION: Inhibition of human HDAC8 using Boc-Lys(TFA)-AMC as substrate incubated 30 mins before substrate addition measured after 30 mins post substrate addition by fluorescence assay
OBSERVED PROPERTY: IC50 (nM)

[A] CC(C)CCc1c(OCCCCCCC(=O)NO)ccc2c1OC(=O)CC2
[B] CC(C)CCc1c(OCCCCCCC(=O)NO)ccc2ccc(=O)oc12
[C] CC(C)CCc1c(OCCCCCCC(=O)NO)ccc(CCC(=O)NO)c1O
IN: Order by IC50, ascending. Provide the ranking by listing each label in its place in the requested order.
OUT: C, B, A
(C: 268 nM, B: 553 nM, A: 1080 nM)
